# targetOrSystem: GST-SIP1 PDZ domain 1 (human)
# assay: Matrix/G assay ELISA, E6 peptide titrated on GST-PDZ
Ends that are not written are not given here.
measuredProperty: pEC50
The quantity pEC50 is defined as the negative base-10 logarithm of the molar concentration.

# pEC50 (binder: WTGRCMSCCRSSRTRRETQL (not fully specified; cysteine pairing not given here) [HPV16 E6 C-terminal PDZ ligand peptide (20 mer, biotinylated), P03126 139-158] ) is 5.12
